protocol.summary: Bioavailability of amisulpride administered by the oral route
condition.description: in vivo, conventional amisulpride, of the order of
result.type: bioavailability

Please report bioavailability for the following compound: CCN1CCCC1CNC(=O)c1cc(S(=O)(=O)CC)c(N)cc1OC (stereo not shown) [amisulpride]
35 to 45%
